// reported TGI per item
System: TK-10 renal
Experimental Protocol: NCI tumour cell line growth inhibition, 48 h
Use µM as the unit, but write only the number.

Compound: CC1(C)C(=O)/C=C\C(=O)C(C)(C)C(=O)/C=C\C(=O)C(C)(C)C2=CC=C(O2)C(C)(C)C(=O)/C=C\C1=O
Measured Quantity: TGI
U: µM
Reported Result: 13.4

Compound: COc1ccc2nc3ccccc3c(NCCNCC(C)O)c2c1 (stereo not drawn)
Measured Quantity: TGI
U: µM
Reported Result: 6.04

Compound: CCSc1nc(N/N=C/c2cccs2)c2cnn(CO)c2n1
Measured Quantity: TGI
U: µM
Reported Result: 21.9

query: Form field: reported TGI of Cc1cc(O)c2c(c1)C(C1c3cccc(O)c3C(=O)c3c(O)cc(C)cc31)c1cccc(O)c1C2=O (stereo not drawn)
result: 20.6

====

Test system: SK-OV-3 ovarian
Experimental Protocol: NCI tumour cell line growth inhibition, 48 h
# TGI per entry
Answer with a number only, understood to be in µM.

Chemical Smiles: COC(=O)c1cc2cc(/C=C3/SC(=S)N(N(C(C)=O)C(C)=O)C3=O)oc2n1Cc1ccccc1
Reported Result: 89.9

query: Query the reported TGI for SK-OV-3 ovarian; item: COc1cc(-c2ccc[nH]2)[nH]c1/C=C1\N=C(C)C(CC(=O)OCC(C)(C)C)=C1C
result: 2.02

query: Entry CC1(C)C(=O)/C=C\C(=O)C(C)(C)C(=O)/C=C\C(=O)C(C)(C)C2=CC=C(O2)C(C)(C)C(=O)/C=C\C1=O , system SK-OV-3 ovarian: what TGI was measured?
result: 22.9

====

Listed below: TGI values for each entry.
Tested on: IGROV1 ovarian
Experimental Protocol: NCI tumour cell line growth inhibition, 48 h

Solved entries (count: 5):
Compound: COC(=O)c1cc(-c2ccc(S(C)(=O)=O)cc2)[nH]c1N/N=C/c1c(Cl)cccc1Cl
Target Desc: IGROV1 ovarian
TGI: 67.3 µM
//
Compound: Cc1ccc(S(=O)(=O)NNS(C)(=O)=O)cc1
Target Desc: IGROV1 ovarian
TGI: > 100 µM
//
Compound: Cc1cc(Br)ccc1N=Nc1c(C)nn(-c2ccccc2)c1-c1ccccc1
Target Desc: IGROV1 ovarian
TGI: > 100 µM
//
Compound: C(=N\NC1=NCCN1)/c1ccc2ccccc2c1
Target Desc: IGROV1 ovarian
TGI: 24.6 µM
//
Compound: CCN(CC)c1c(C)nnn1C1OC(COC(C)=O)C(OC(C)=O)C(OC(C)=O)C1OC(C)=O (stereo not given)
Target Desc: IGROV1 ovarian
TGI: > 100 µM

Shifting focus to the compound that follows.
query: // TGI lookup, key: CC(=O)Nc1ccc(/C=c2\sc3nnc(-c4cccnc4)n3c2=O)cc1
result: 32.5 µM

====

Listing of recorded TGI by entry.
System: DLD-1 colon
Experimental Protocol: NCI tumour cell line growth inhibition, 48 h

Reference set, count: 5
Compound: COc1ccc2c(c1)[n+]([O-])c(-c1ccccc1Cl)c(N)[n+]2[O-]
Measured Quantity: TGI
Reported Result: > 100 µM

Compound: O=C1Nc2ccc(Cl)c(I)c2C1=O
Measured Quantity: TGI
Reported Result: 31.4 µM

Compound: N#CC(/C(CCCC(=O)Nc1cccc([N+](=O)[O-])c1)=N\NC(=O)c1c(O)ccc2ccccc12)c1nc2ccccc2s1 (stereo unspecified)
Measured Quantity: TGI
Reported Result: > 100 µM

Compound: Cc1ccc(NC(=O)C2C3CCC(O3)C2C(=O)O)cc1 (stereo unspecified)
Measured Quantity: TGI
Reported Result: 96.9 µM

Compound: COC(=O)C(CCC1(C)OCCO1)=[N+]=[N-]
Measured Quantity: TGI
Reported Result: > 100 µM

query: Please give the measured TGI for this compound: CN1CCN(c2nc(N)c(Br)c(Cl)n2)CC1
result: > 100 µM

====

TGI values by entry
Tested on: OVCAR-3 ovarian
Experimental Protocol: NCI tumour cell line growth inhibition, 48 h

Use the examples below as a reference point.
Compound: CC(=O)[CH-]C(=O)c1ccccc1.CC(=O)[CH-]C(=O)c1ccccc1.CC(=O)[CH-]C(=O)c1ccccc1.[Ga+3]
TGI: 48.9 µM

Compound: CCCCOC(=O)NC(=O)c1cn(CCCOC(=O)CCCCCCCCC(=O)OCCCn2cc(C(=O)NC(=O)OCCCC)c(=O)n(C)c2=O)c(=O)n(C)c1=O
TGI: > 100 µM

Compound: CN(C)N=Nc1ccc(S(N)(=O)=O)cc1
TGI: > 100 µM

Compound: CC#CCCCC1(C)CCNC1=S (stereo not given)
TGI: > 10 µM

Here is another compound to look at.
query: Under OVCAR-3 ovarian: TGI value of Cc1ccc(S(=O)(=O)N(CCNC(=O)c2cccc(O)c2O)c2cc3c4c(c2)Oc2cccc5c2C4(C)c2c(cccc2O3)O5)cc1 ?
result: > 100 µM

====

System: HCT-116 colon
Experimental Protocol: NCI tumour cell line growth inhibition, 48 h
Overview of reported GI50 across a group of compounds:

Solved entries:
Compound: CCS(=O)(=O)c1ccc(OC)c(Nc2ncc(-c3cccc(F)c3)o2)c1
GI50: > 25 µM
//
Compound: CCCCCCCCN=C(NCCCCCCCC)SCc1cccc2ccccc12
GI50: 0.73 µM

query: Requested field: GI50. Item: CN(CCCCCl)P(=O)(OCc1ccc([N+](=O)[O-])o1)OCC1OC(n2cc([N+](=O)[O-])c(=O)[nH]c2=O)CC1O (centres undefined)
result: 66.5 µM

query: Tell me the measured GI50 of O=C1/C(=C/c2ccc([N+](=O)[O-])o2)Oc2ccc(Cl)cc21 , please.
result: 0.648 µM

query: Can you share its GI50? I mean this compound: N#CC1=C(N)OC2=C(CCOc3c2ccc2ccccc32)C1c1ccc(Br)cc1 (centres undefined)
result: 15.1 µM

query: Look at this compound and give its reported GI50. C[C@]12CCC(=O)C[C@@H]1CC[C@@H]1[C@@H]2CC[C@]2(C)[C@@H](OC(=O)N(CCCl)N=O)CC[C@@H]12
result: 2.89 µM

query: Tell me the measured GI50 of CCc1c(C)c2cc(-n3c(-c4ccc(OC)cc4)csc3=N)c(O)c(C)c2oc1=O , please.
result: 1.23 µM

query: For the compound shown here, CSc1ccc(C(=O)/C=C/c2ccc(Cl)cc2Cl)cc1 , give the reported GI50.
result: 3.91 µM

query: Using the record for O=C1NC(=NCCc2ccc(Br)cc2)S/C1=C\c1ccc2ncccc2c1 , report its GI50.
result: 16.7 µM

====

# Lookup of reported TGI keyed by entry
Test system: KM12 colon
Experimental Protocol: NCI tumour cell line growth inhibition, 48 h
The reply should be a number in µM, with the unit left off.

Reference set (4 entries):
Chemical Smiles: C[C@]12CCC(=O)C[C@@H]1CC[C@@H]1[C@@H]2CC[C@]2(C)[C@@H](OC(=O)N(CCCl)N=O)CC[C@@H]12
Measured Quantity: TGI
U: µM
Reported Result: 6.41

Chemical Smiles: Clc1ccc(-c2nc(NCc3ccco3)c3ccccc3n2)c(Cl)c1
Measured Quantity: TGI
U: µM
Reported Result: 27.3

Chemical Smiles: COc1ccc(Nc2nc(N)c(C(=O)c3ccc(Cl)cc3)s2)cc1
Measured Quantity: TGI
U: µM
Reported Result: 0.536

Chemical Smiles: CC(=O)Nc1ccc(/C=c2\sc3nnc(-c4cccnc4)n3c2=O)cc1
Measured Quantity: TGI
U: µM
Reported Result: 31

query: Please report the recorded TGI for FC(F)(F)c1cccc(-c2[nH]ncc2-c2nnnn2-c2ccccc2)c1 .
result: 22.2

====

System: M14 melanoma
Experimental Protocol: NCI tumour cell line growth inhibition, 48 h
# TGI per entry
Just the number in µM, nothing appended.

Before answering, review these 3 worked examples.
Chemical Smiles: Cc1cc(N(CCNc2ccnc3cc(Cl)ccc23)Cc2ccc3c(c2)OCO3)nc(N2CCCC2)n1
Reported Result: 3.71
//
Chemical Smiles: COc1cc2c[n+](C)c3c4cc(OC)c(OCc5ccccc5)cc4c(OCc4ccccc4)cc3c2cc1OC
Reported Result: 21.6
//
Chemical Smiles: S=C(SSC(=S)N1CCCCC1)N1CCCCC1
Reported Result: 22.9

With those in mind, consider the next compound.
query: Which measured TGI value corresponds to NC(=S)N1N=C2c3ccccc3CCC[C@H]2[C@@H]1c1ccccc1 ?
result: 10.1

====

Test system: SR leukemia
Experimental Protocol: NCI tumour cell line growth inhibition, 48 h
Measured Quantity: TGI

Examples with answers:
Compound: CC(=O)NC(C)(C)C1CCC(C)CC1 (stereo unspecified)
Target Desc: SR leukemia
Reported Result: > 100 µM
//
Compound: C/C(=N\NC(N)=S)c1nc2ncccc2[nH]1
Target Desc: SR leukemia
Reported Result: > 100 µM

query: Which TGI is listed for Fc1ccc(Nc2nc(Nc3ccc(-c4nc5ccccc5[nH]4)cc3)c3cn[nH]c3n2)cc1 ?
result: 5.9 µM

query: Which TGI is listed for O=C1NC(=NCCc2ccc(Br)cc2)S/C1=C\c1ccc2ncccc2c1 ?
result: > 25 µM

query: Name the recorded TGI for COc1ccc([I+]c2ccc(OC)cc2)cc1 .
result: > 100 µM

query: What value of measured TGI is listed for CCCN(CCC)C(=O)c1c(N2CCN(C)CC2)c2cccnc2n2c(C)cnc12 ?
result: > 100 µM
